Experiment: Stability evaluation of solution formulation (Experimental Example 2)
Assay type: physicochemical
Conditions: solution formulation, pH4.0, 2 week
Description: For Example 1, Example 2, Example 5, Example 6, Comparative Example 13 and Comparative Example 14, the attrition rate of the test compound and the conversion rate of the test compound to Alvocidib in a solution formulation were calculated by the following method. Example 1, Example 2, Example 5, Example 6, Comparative Example 13 and Comparative Example 14 were each added to buffer solutions adjusted to pH 3.0, 4.0 and 5.0, respectively, at a concentration of 0.1 mg/mL, and left at 5° C. […]
Measured Attribute: Production rate of Alvocidib (%)
Field format: number, assumed %, no unit text.

Item: CCN(C[C@@H]1CCCCN1)C(=O)Oc1cc(O)c2c(=O)cc(-c3ccccc3Cl)oc2c1[C@H]1CCN(C)C[C@H]1O [Example 1, ditrifluoroacetate] | Production rate of Alvocidib: 0.2

The value of Production rate of Alvocidib measured for the compound CNCCN(C)C(=O)Oc1cc(O)c2c(=O)cc(-c3ccccc3Cl)oc2c1[C@H]1CCN(C)C[C@H]1O [Comparative Example 14, reference compound] turned out to be 21.1

Reported Production rate of Alvocidib of CN1CC[C@H](c2c(OC(=O)N(C)CCN)cc(O)c3c(=O)cc(-c4ccccc4Cl)oc23)[C@H](O)C1 [Comparative Example 13, reference compound] : 2.2

Record `CCCN(C[C@@H]1CCCCN1)C(=O)Oc1cc(O)c2c(=O)cc(-c3ccccc3Cl)oc2c1[C@H]1CCN(C)C[C@H]1O` , field Production rate of Alvocidib: 0.4

Item: `CCCN(C[C@H]1CCCCN1)C(=O)Oc1cc(O)c2c(=O)cc(-c3ccccc3Cl)oc2c1[C@H]1CCN(C)C[C@H]1O` | Production rate of Alvocidib: 0.8

# Production rate of Alvocidib (compound: `CCN(C[C@H]1CCCCN1)C(=O)Oc1cc(O)c2c(=O)cc(-c3ccccc3Cl)oc2c1[C@H]1CCN(C)C[C@H]1O` ) is 0.2

Source of measurements: patent US12617779B2
